Test: Calcium (Ca^2+) binding assay: fluorescence/absorbance titration of purified protein
Conditions: absorbance at 569
Endpoint Label: Aholo/Aapo

The recorded Aholo/Aapo for mApple A145E/K198E/R216E: mApple variant, SEQ ID NO: 30 (protein) EENNMAIIKEFMRFKVHMEGSVNGHEFEIEGEGEGRPYEAFQTAKLKVTKGGPLPFAWDILSPQFMYGSKVYIKHPADIPDYFKLSFPEGFRWERVMNFEDGGIIHVNQDSSLQDGVFIYKVKLRGTNFPSDGPVMQKKTMGWEESEERMYPEDGALKSEIKKRLKLKDGGHYAAEVKTTYKAKKPVQLPGAYIVDIELDIVSHNEDYTIVEQYEEAEGRHSTGGMDELYK is 1.04 (569)
